test: Total and free rivaroxaban concentration in rabbit plasma; type: in vivo; settings: male, NZW, rabbit, plasma; 30 min time point, 1 mg/kg IV
Experimental readout: concentration at 30 min (nM)
Write the number in nM without appending the unit.

Input line: Supply concentration at 30 min value. Item: "O=C(NC[C@H]1CN(c2ccc(N3CCOCC3=O)cc2)C(=O)O1)c1ccc(Cl)s1"
Output line: 1650

* * *

Exercise: for every item that follows, state its recorded fraction unbound at 30 min.
assay: Total and unbound fXa inhibitor plasma concentration in rats; format: in vivo, rat; conditions: male, SD, rat, plasma, iv

Input line: Supply fraction unbound at 30 min value. Item: O=C(NC[C@H]1CN(c2ccc(N3CCOCC3=O)cc2)C(=O)O1)c1ccc(Cl)s1 [rivaroxaban]
Output line: 0.022

Input line: Supply fraction unbound at 30 min value. Item: COc1ccc(NC(=O)c2ccc(C(=N)N(C)C)cc2)c(C(=O)Nc2ccc(Cl)cn2)c1 [betrixaban]
Output line: 0.41

Input line: Supply fraction unbound at 30 min value. Item: COc1ccc(-n2nc(C(N)=O)c3c2C(=O)N(c2ccc(N4CCCCC4=O)cc2)CC3)cc1 [apixaban]
Output line: 0.015
